Notes on Ki obtained with Adenosine receptor A1 (Homo sapiens, UniProt P30542).
Sequence (P30542 whole entry): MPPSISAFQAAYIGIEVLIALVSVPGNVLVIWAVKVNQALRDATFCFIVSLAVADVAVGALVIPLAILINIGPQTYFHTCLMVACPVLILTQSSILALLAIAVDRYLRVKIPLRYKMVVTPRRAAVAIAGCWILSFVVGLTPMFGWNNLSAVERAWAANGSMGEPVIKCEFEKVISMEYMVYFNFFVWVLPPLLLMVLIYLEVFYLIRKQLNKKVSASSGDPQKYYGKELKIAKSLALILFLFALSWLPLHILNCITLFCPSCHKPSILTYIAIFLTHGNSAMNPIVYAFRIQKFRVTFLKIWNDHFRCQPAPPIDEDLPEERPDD
A number alone suffices; assume nM.

Nc1nc(Cc2cccc(O)c2)nc2cn(-c3ccccc3)nc12 312
COc1cccc(CCCc2nc(N)c3nn(-c4ccccc4)cc3n2)c1 0.15
Nc1nc(CCCc2cccc(O)c2)nc2cn(-c3ccccc3)nc12 0.22
Nc1nc(CCCc2ccccc2)nc2cn(-c3ccccc3)nc12 5.31
CCc1nc(N)c2nn(-c3ccccc3)cc2n1 90
Nc1nc(CCc2ccc(O)cc2)nc2cn(-c3ccccc3)nc12 420

Attention now shifts to the item below.
Request: Any idea what Ki came out for Nc1nc(CCCc2ccccc2O)nc2cn(-c3ccccc3)nc12 on Adenosine receptor A1 (Homo sapiens, UniProt P30542)?
Result: 0.54

----------
- subject_of_test: Adenosine receptor A1 (Homo sapiens, UniProt P30542)
- experiment_notes: Antagonist activity at human adenosine A1 receptor expressed in CHO cells assessed as inhibition of CCPA-stimulated cAMP level by scintillation counting analysis
quantity: IC50 (nM)
Respond numerically; units are nM and should not be typed.

# count of solved cases: 3
Nc1nc(CCCc2cccc(O)c2)nc2cn(-c3ccccc3)nc12 2.87
COc1cccc(CCCc2nc(N)c3nn(-c4ccccc4)cc3n2)c1 2.41
COc1ccccc1CCCc1nc(N)c2nn(-c3ccccc3)cc2n1 12

Request: Need IC50, item Nc1nc(CCCc2ccccc2)nc2cn(-c3ccccc3)nc12
Result: 43

Request: # query: IC50 of entry Nc1nc(CCCc2ccccc2O)nc2cn(-c3ccccc3)nc12
Result: 4.26

----------
- subject_of_test: Adenosine receptor A3 (Homo sapiens) (UniProt P0DMS8)
- Sequence (P0DMS8 whole entry): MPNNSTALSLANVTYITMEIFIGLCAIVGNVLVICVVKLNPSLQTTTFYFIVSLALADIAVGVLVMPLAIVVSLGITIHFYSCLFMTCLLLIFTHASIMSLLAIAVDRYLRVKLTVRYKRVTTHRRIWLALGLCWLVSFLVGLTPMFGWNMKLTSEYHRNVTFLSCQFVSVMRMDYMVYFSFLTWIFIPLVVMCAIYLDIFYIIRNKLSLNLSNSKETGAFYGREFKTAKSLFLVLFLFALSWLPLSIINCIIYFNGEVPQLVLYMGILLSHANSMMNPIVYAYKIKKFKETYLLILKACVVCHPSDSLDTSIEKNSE
- experiment_notes: Displacement of [3H]AB-MECA from human adenosine A3 receptor expressed in CHO cells at 1 uM by scintillation counting analysis relative to control
- Type: cell-based
quantity: inhibition (%)
Dear colleague, please return just the value in %, with no unit written.

Consider the following illustrative entries.
Nc1nc(Cc2cccc(Cl)c2)nc2cn(-c3ccccc3)nc12 42
Nc1ncnc2cn(-c3ccccc3)nc12 4
Nc1nc(CCCc2ccccc2O)nc2cn(-c3ccccc3)nc12 36
COc1ccc(CCCc2nc(N)c3nn(-c4ccccc4)cc3n2)cc1 1
Cc1ccc(Cc2nc(N)c3nn(-c4ccccc4)cc3n2)cc1 39

Request: # lookup: inhibition of Nc1nc(Cc2ccccc2F)nc2cn(-c3ccccc3)nc12
Result: 37

Request: Would you mind telling me what inhibition value was observed for Nc1nc(CCCc2cccc(O)c2)nc2cn(-c3ccccc3)nc12 ?
Result: 46

Request: inhibition lookup needed for Nc1nc(CCc2ccc(O)cc2)nc2cn(-c3ccccc3)nc12 , thanks.
Result: 37

Request: Recorded inhibition of CCc1nc(N)c2nn(-c3ccccc3)cc2n1 , please.
Result: 38

Request: Give the measured inhibition of Nc1nc(CCc2ccccc2)nc2cn(-c3ccccc3)nc12 .
Result: 17

Request: Could you share which inhibition value was measured for Nc1nc(Cc2ccc(O)cc2)nc2cn(-c3ccccc3)nc12 ?
Result: 20

Request: Quick one: inhibition of Nc1nc(CCCc2ccc(O)cc2)nc2cn(-c3ccccc3)nc12 ?
Result: 20

----------
- subject_of_test: Adenosine receptor A2b (Homo sapiens)
- experiment_notes: Antagonist activity at human adenosine A2B receptor expressed in CHO cells assessed as inhibition of NECA-stimulated cAMP level at 1 uM by scintillation counting analysis
- Format: functional, cell-based
Reported inhibition values for the following compounds.
Respond numerically; units are % and should not be typed.

In the examples that follow, each entry is paired with its recorded inhibition.
Cc1ccc(Cc2nc(N)c3nn(-c4ccccc4)cc3n2)cc1 21
Nc1nc(/C=C/c2ccccc2)nc2cn(-c3ccccc3)nc12 7
Nc1nc(Cc2ccc(O)cc2)nc2cn(-c3ccccc3)nc12 4

Request: Recorded inhibition of CC(C)Cc1nc(N)c2nn(-c3ccccc3)cc2n1 , please.
Result: 1

Request: # get_value(readout='inhibition', item= COc1ccccc1Cc1nc(N)c2nn(-c3ccccc3)cc2n1 )
Result: 1

Request: Bench note: what inhibition did COc1ccc(CCCc2nc(N)c3nn(-c4ccccc4)cc3n2)cc1 show?
Result: 30
